experiment: Selectivity ratio of IC50 for antiproliferative activity against human MCF-10A cells assessed as inhibition of cell proliferation incubated for 24 hrs by MTT assay to IC50 for antiproliferative activity against human MDA-MB-231 cells assessed as inhibition of cell proliferation incubated for 24 hrs by MTT assay; type: cell-based; settings: MCF-10A cells versus MDA-MB-231 cells, read-out: Ratio IC50

compound: CC(C)=CCC/C(C)=C/[C@H]1OC(=O)CC12C[C@H](OC(=O)Cc1ccc(NC(=O)/C=C/c3ccccc3)cc1)C=CC2=O (some centres not stated)
selectivity ratio at 24 h: 67.2

compound: CC(=O)O[C@H]1C(=O)[C@@]2(C)[C@H]([C@H](OC(=O)c3ccccc3)[C@]3(O)C[C@H](OC(=O)[C@H](O)[C@@H](NC(=O)c4ccccc4)c4ccccc4)C(C)=C1C3(C)C)[C@]1(OC(C)=O)CO[C@@H]1C[C@@H]2O
selectivity ratio at 24 h: 0.19
